In this section, each of the molecules is paired with its reported pIC50.
# Subject Of Test: KRAS G12C (Homo sapiens, UniProt P01116+P62937, G12C)
# Sequence (P01116 1-169 isoform P01116-2 G12C limits assumed): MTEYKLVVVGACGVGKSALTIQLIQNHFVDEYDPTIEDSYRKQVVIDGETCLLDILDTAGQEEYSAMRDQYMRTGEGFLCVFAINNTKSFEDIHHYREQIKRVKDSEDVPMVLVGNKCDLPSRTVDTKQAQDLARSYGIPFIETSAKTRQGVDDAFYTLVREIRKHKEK
# Sequence (P62937 whole entry): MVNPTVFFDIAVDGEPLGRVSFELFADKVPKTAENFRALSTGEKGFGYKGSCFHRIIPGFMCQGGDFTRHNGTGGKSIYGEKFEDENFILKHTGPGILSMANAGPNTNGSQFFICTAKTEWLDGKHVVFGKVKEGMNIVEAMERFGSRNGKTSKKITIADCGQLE
# Measurement Protocol: Ras-Raf disruption / FRET / MOA assay (BRAF RBD)
# Assay type: biochemical
# Run Conditions: Ras-Raf disruption, with Cyclophilin A; read-out: KRAS G12C FRET data IC50
pIC50: −log10 of the molar value.
Readout Label: pIC50

# Molecule, Result
measured = [
    ("CCn1c(-c2cccnc2[C@H](C)OC)c2c3cc(ccc31)-c1cc(O)cc(c1)C[C@H](NC(=O)[C@H](C(C)C)N(C)C(=O)[C@H]1CCN(C(=O)C3CO3)C1)C(=O)N1CCC[C@H](N1)C(=O)OCC(C)(C)C2 (some centres unmarked) [Example 330]", "> 8.00"),
    ("CCn1c(-c2cccnc2[C@H](C)OC)c2c3cc(ccc31)-c1cc(O)cc(c1)C[C@H](NC(=O)[C@H](C(C)C)N1CCC3(CN(C(=O)[C@H]4CN4)C3)C1=O)C(=O)N1CCC[C@H](N1)C(=O)OCC(C)(C)C2 [Example 115]", "> 8.00"),
    ("CCn1c(-c2cccnc2[C@H](C)OC)c2c3cc(ccc31)-c1cc(O)cc(c1)C[C@H](NC(=O)[C@H](C(C)C)N(C)C(=O)[C@H]1C[C@H](NC(=O)[C@H]3CN3)C1)C(=O)N1CCC[C@H](N1)C(=O)OCC(C)(C)C2 [Example 182]", "7.00 to 8.00"),
    ("CCn1c(-c2cccnc2[C@H](C)OC)c2c3cc(ccc31)-c1cc(O)cc(c1)C[C@H](NC(=O)[C@H](C(C)C)N(C)C(=O)N1CC(NC(=O)[C@@H]3CN3)C1)C(=O)N1CCC[C@H](N1)C(=O)OCC(C)(C)C2 (atropisomer, axis not shown) [Example 188]", "7.00 to 8.00"),
    ("CCn1c(-c2cccnc2[C@H](C)OC)c2c3cc(ccc31)-c1cc(O)cc(c1)C[C@H](NC(=O)[C@H](C(C)C)N1CC[C@]3(CCN(C(=O)[C@@H]4N[C@@H]4C4CC4)C3)C1=O)C(=O)N1CCC[C@H](N1)C(=O)OCC(C)(C)C2 [Example 305]", "7.00 to 8.00"),
    ("CCn1c(-c2cccnc2[C@H](C)OC)c2c3cc(ccc31)-c1cccc(c1)C[C@H](NC(=O)[C@H](C(C)C)N(C)C(=O)CCN=C=NCCOC)C(=O)N1CCC[C@H](N1)C(=O)OCC(C)(C)C2 [Example 74]", "7.00 to 8.00"),
    ("CCn1c(-c2cccnc2[C@H](C)OC)c2c3cc(ccc31)-c1cc(O)cc(c1)C[C@H](NC(=O)[C@H](C(C)C)N(C)C(=O)CN(C)S(=O)(=O)[C@@H]1CN1C)C(=O)N1CCC[C@H](N1)C(=O)OCC(C)(C)C2 (single isomer, unassigned) [Example 92]", "7.00 to 8.00"),
    ("CCn1c(-c2cccnc2[C@H](C)OC)c2c3cc(ccc31)-c1cccc(c1)C[C@H](NC(=O)[C@H](C(C)C)N(C)C(=O)[C@H]1C[C@H](N=C=NCc3ccccc3OC)C1)C(=O)N1CCC[C@H](N1)C(=O)OCC(C)(C)C2 [Example 77]", "7.00 to 8.00"),
]
